Each entry below carries its reported Dmax.
Study target: EGFR L858R/T790M/C797S (BaF3-LTC cells) (Homo sapiens, UniProt P00533, C797S/L858R/T790M)
Construct: expressed in transfected cells; host or cells: BaF3
Sequence (P00533 25-1210 T790M/C797S/L858R): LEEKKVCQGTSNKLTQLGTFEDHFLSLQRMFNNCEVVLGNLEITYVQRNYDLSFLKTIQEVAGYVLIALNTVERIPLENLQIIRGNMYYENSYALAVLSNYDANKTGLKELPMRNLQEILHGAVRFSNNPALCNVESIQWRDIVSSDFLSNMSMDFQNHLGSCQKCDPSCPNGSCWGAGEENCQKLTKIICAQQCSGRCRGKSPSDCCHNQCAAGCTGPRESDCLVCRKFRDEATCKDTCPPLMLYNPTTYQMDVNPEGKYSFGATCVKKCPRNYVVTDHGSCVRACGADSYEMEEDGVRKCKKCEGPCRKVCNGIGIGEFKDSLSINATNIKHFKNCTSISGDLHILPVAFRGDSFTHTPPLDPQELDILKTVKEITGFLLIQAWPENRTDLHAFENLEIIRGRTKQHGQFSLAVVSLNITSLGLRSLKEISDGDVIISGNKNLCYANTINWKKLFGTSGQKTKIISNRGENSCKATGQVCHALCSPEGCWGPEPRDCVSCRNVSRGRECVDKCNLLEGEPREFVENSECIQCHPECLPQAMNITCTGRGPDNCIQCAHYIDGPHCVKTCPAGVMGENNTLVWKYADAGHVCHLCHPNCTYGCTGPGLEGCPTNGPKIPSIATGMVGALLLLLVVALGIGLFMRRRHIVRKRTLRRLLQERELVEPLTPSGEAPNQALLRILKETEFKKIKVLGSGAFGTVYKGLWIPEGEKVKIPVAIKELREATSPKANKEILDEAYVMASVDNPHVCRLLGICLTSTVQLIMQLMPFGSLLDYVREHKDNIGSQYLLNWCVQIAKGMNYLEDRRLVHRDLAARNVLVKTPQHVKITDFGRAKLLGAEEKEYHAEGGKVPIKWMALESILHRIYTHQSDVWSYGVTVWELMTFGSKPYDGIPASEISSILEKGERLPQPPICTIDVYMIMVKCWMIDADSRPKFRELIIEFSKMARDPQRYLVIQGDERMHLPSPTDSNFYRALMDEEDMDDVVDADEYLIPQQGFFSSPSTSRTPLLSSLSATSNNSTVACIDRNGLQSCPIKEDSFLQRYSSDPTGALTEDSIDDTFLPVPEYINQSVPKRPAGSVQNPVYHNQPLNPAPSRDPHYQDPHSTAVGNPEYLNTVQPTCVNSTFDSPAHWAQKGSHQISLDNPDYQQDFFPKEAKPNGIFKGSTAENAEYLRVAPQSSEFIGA
Protocol: EGFR degradation HTRF assay, BaF3-LTC cells
Assay type: cell-based
Measurement context: BaF3-LTC cells; maximum percentage of inhibition (degradation); read-out: Dmax (%) BaF3-LTC
Procedure: BaF3 WT(wild type), BaF3-LTC(L858R/T790M/C797S) and BaF3-DTC(Del19/T790M/C797S) cells are treated with compounds diluted in 0.2% DMSO cell culture medium and incubate for 16h, 37° C., 5% CO2, H1975-#36, H1975-#28, H1975-#23 and HCC827 cells are treated with compounds diluted in 0.2% DMSO cell culture medium on day 2, incubate for 16h, 37° C., 5% CO2.the final concentriation of compounds in all assay is start with 10 uM, 5-fold dilution, total 8 doses were included. […]
Unit % implied. Number only.

Compound	Dmax (%)
CCc1ccc2c(P(C)(C)=O)c(Nc3nc(Nc4cc(CC)c(N5CCC(N6CCN(CC7CN(c8cccc9c8oc(=O)n9C8CCC(=O)NC8=O)C7)CC6)CC5)cc4OC)ncc3Br)ccc2n1 (centres unmarked)	89.5
CCOc1cc(N2CCC(N3CCN(CCc4cc5oc(=O)n(C6CCC(=O)NC6=O)c5cc4C)CC3)CC2)c(CC)cc1Nc1ncc(Br)c(Nc2cc(F)c3nc(CC)ccc3c2P(C)(C)=O)n1 (centres unmarked)	90.7
CCOc1cc(N2CCC(N3CCN(CCC4CCN(c5cc(F)c6c(c5)n(CC)c(=O)n6C5CCC(=O)NC5=O)CC4)CC3)CC2)c(CC)cc1Nc1ncc(Br)c(Nc2ccc3c(=O)n(CC)ncc3c2P(C)(C)=O)n1 (centres unmarked)	87.2
CCOc1cc(N2CCC(N3CCN(CCc4c(C)ccc5c4oc(=O)n5C4CCC(=O)NC4=O)CC3)CC2)c(CC)cc1Nc1ncc(Br)c(Nc2ccc3nc(CC)ccc3c2P(C)(C)=O)n1 (centres unmarked)	88

Let's switch to this compound now.
Recall and state the measured Dmax for CCc1cc(Nc2ncc(Br)c(Nc3ccc4nc(C)ccc4c3P(C)(C)=O)n2)c(OC)cc1N1CCC(N2CCN(C(=O)[C@@H]3CCN(c4ccc([C@H]5CCC(=O)NC5=O)cc4)C3)CC2)CC1 . 86.5

* * *

Study target: EGFR L858R/T790M/C797S (BaF3-LTC cells) (Homo sapiens, UniProt P00533, C797S/L858R/T790M)
Construct: expressed in transfected cells; host or cells: BaF3
Protocol: EGFR degradation HTRF assay, BaF3-LTC cells
Type: cell-based
Measurement context: read-out: Dmax (%) BaF3-LTC, BaF3-LTC cells; maximum percentage of inhibition (degradation)
Each entry below carries its reported Dmax.
Unit % implied. Number only.

Known Dmax results, listed for orientation:
Compound	Measurement unit	Dmax
CCOc1cc(N2CCC(N3CCN(C(=O)[C@H]4CN(c5cc(F)cc6c5oc(=O)n6C5CCC(=O)NC5=O)CC4(C)C)CC3)CC2)c(CC)cc1Nc1ncc(Br)c(Nc2ccc3nc(CC)ccc3c2P(C)(C)=O)n1 (stereo partly drawn)	%	89.4
CCc1ccc2c(P(C)(C)=O)c(Nc3nc(Nc4cc(CC)c(N5CCC(N6CCN(C(=O)C7CN(c8cccc9c8oc(=O)n9C8CCC(=O)NC8=O)C7)CC6)CC5)cc4OC)ncc3Br)ccc2n1 (stereo not drawn)	%	96.4

Recall and state the measured Dmax for CCOc1cc(N2CCC(N3CCN(C(=O)CCC4CN(c5cccc6c5oc(=O)n6C5CCC(=O)NC5=O)C4)CC3)CC2)c(CC)cc1Nc1ncc(Br)c(Nc2ccc3nc(CC)ccc3c2P(C)(C)=O)n1 (stereo not drawn) . 88.8
